target: Human immunodeficiency virus type 1 integrase (Human immunodeficiency virus 1, UniProt Q7ZJM1)
Sequence (Q7ZJM1 whole entry): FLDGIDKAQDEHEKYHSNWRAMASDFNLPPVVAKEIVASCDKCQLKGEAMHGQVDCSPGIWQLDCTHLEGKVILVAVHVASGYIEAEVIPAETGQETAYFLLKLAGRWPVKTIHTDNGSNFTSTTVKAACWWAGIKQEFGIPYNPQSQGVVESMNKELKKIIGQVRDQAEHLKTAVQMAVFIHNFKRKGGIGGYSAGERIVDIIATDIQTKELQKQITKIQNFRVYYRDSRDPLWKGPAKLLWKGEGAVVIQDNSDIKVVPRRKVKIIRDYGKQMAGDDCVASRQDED
Please go through the items and note down their IC50.

Name the recorded IC50 for CCOC(=O)/C(O)=C/C(=O)c1cn(Cc2ccncc2)c2ccccc2c1=O . > 333 µM

Name the recorded IC50 for CCOC(=O)/C(O)=C/C(=O)c1cn(Cc2ccc([N+](=O)[O-])cc2)c2ccccc2c1=O . > 37 µM

Name the recorded IC50 for CCOC(=O)/C(O)=C/C(=O)c1cn(Cc2ccc(OC)cc2)c2ccccc2c1=O . > 37 µM

Name the recorded IC50 for O=C(O)/C(O)=C/C(=O)c1cn(Cc2ccc(F)cc2)c2cc(Cl)c(Cl)cc2c1=O . > 50 µM

Name the recorded IC50 for COc1ccccc1Cn1cc(C(=O)/C=C(\O)C(=O)O)c(=O)c2ccccc21 . > 4.1 µM

Name the recorded IC50 for CCOC(=O)/C(O)=C/C(=O)c1cn(Cc2ccc3ccccc3c2)c2ccccc2c1=O . > 333 µM

Name the recorded IC50 for CCOC(=O)/C(O)=C/C(=O)c1cn(Cc2cccc(OC)c2)c2ccccc2c1=O . > 333 µM

Name the recorded IC50 for CCOC(=O)/C(O)=C/C(=O)c1cn(CCCCc2ccccc2)c2ccccc2c1=O . > 333 µM

Name the recorded IC50 for CCOC(=O)/C(O)=C/C(=O)c1cn(Cc2cccc(F)c2)c2ccccc2c1=O [RDS-1624] . > 12.3 µM

###

biological target: Human immunodeficiency virus type 1 integrase (Human immunodeficiency virus 1)
IC50 strictly under 2 µM means Criterion met; at 2 µM or over means Criterion not met.

Does this compound meet the criterion IC50 < 2 µM? O=C(O)/C(O)=C/C(=O)c1cn(Cc2cc(F)ccc2F)c2ccccc2c1=O Criterion not met

Does this compound meet the criterion IC50 < 2 µM? CCOC(=O)/C(O)=C/C(=O)c1cn(Cc2cc(F)cc(F)c2)c2ccccc2c1=O Criterion not met

Does this compound meet the criterion IC50 < 2 µM? O=C(O)/C(O)=C/C(=O)c1cn(CCCCc2ccccc2)c2ccccc2c1=O Criterion met

Does this compound meet the criterion IC50 < 2 µM? O=C(O)/C(O)=C/C(=O)c1cn(Cc2ccc(Cl)cc2Cl)c2ccccc2c1=O Criterion not met

Does this compound meet the criterion IC50 < 2 µM? O=C(O)/C(O)=C/C(=O)c1cn(Cc2ccccc2)c2ccccc2c1=O Criterion met

Does this compound meet the criterion IC50 < 2 µM? O=C(O)/C(O)=C/C(=O)c1cn(Cc2ccc(O)cc2)c2ccccc2c1=O Criterion met

Does this compound meet the criterion IC50 < 2 µM? Cc1ccc(Cn2cc(C(=O)/C=C(\O)C(=O)O)c(=O)c3ccccc32)c(C)c1 Criterion not met

Does this compound meet the criterion IC50 < 2 µM? O=C(O)/C(O)=C/C(=O)c1cn(Cc2ccc3ccccc3c2)c2ccccc2c1=O Criterion met

Does this compound meet the criterion IC50 < 2 µM? O=C(O)/C(O)=C/C(=O)c1cn(Cc2c(F)cccc2F)c2ccccc2c1=O [RDS-1984] Criterion met
